# Species on record: Rattus norvegicus
# Assay info: Open TG-GATES - Regimen: Single
# Format: toxicity, organism-based, Sprague-Dawley
# Design: regimen Single, gender Male, age 6 weeks
# Setup conditions: in vivo, po, 0 mg/kg, 6 h, tissue Plasma, route gavage, dose level Control
Measurement name: TP
Answer with the figure and its unit, nothing else.

Q) // returns reported TP for input `CN(C)C(=N)N=C(N)N`
A) 5 g/dL

Q) State the recorded TP for this entry: `CCc1oc2ccccc2c1C(=O)c1cc(Br)c(O)c(Br)c1`
A) 5.7 g/dL

Q) # get_value(readout='TP', item= CN(C)CCC=C1c2ccccc2COc2ccccc21 [DOXEPIN] )
A) 5.3 g/dL

Q) Which TP is reported for this molecule? OCCOCCN1CCN(C(c2ccccc2)c2ccc(Cl)cc2)CC1 (stereo not given) [HYDROXYZINE]
A) 5.3 g/dL

Q) Given the molecule `CCC1(c2ccccc2)C(=O)NC(=O)NC1=O` , what is its reported TP?
A) 5.4 g/dL

Q) Entry under review: ClC(Cl)(Cl)Cl [CARBON TETRACHLORIDE] . Reported TP?
A) 5.4 g/dL

Q) Form field: reported TP of `CC[C@H]1[C@@H]2C[C@H]3[C@@H]4N(C)c5ccccc5[C@]45C[C@@H]([C@@H]2[C@H]5O)N3[C@@H]1O`
A) 5.2 g/dL

Q) So what does the record say about TP for `O=NN(CCCl)C(=O)NC1CCCCC1` ?
A) 5.7 g/dL

Q) Quick check: TP of CC1=C(CC(=O)O)c2cc(F)ccc2/C1=C\c1ccc([S+](C)[O-])cc1 (stereo not given) ?
A) 5.2 g/dL

Q) Tell me the measured TP of CC(C)N(CCC(C(N)=O)(c1ccccc1)c1ccccn1)C(C)C (stereo not given) [DISOPYRAMIDE] , please.
A) 5.5 g/dL

----------
# Species: Rattus norvegicus
# Assay info: Open TG-GATES - Regimen: Single
# Assay type: toxicity, organism-based, Sprague-Dawley
# Design: regimen Single, gender Male, age 6 weeks
# Setup conditions: in vivo, po, 0 mg/kg, 6 h, tissue Kidney, route gavage, dose level Control
Measurement name: KIDNEY_TOTAL (g)
Just the number in g, nothing appended.

Some compounds with known KIDNEY_TOTAL results, for comparison:
- CC[C@H]1[C@@H]2C[C@H]3[C@@H]4N(C)c5ccccc5[C@]45C[C@@H]([C@@H]2[C@H]5O)N3[C@@H]1O [AJMALINE]: 1.7
- CN(C)C(=N)N=C(N)N [METFORMIN]: 1.8
- CN(C)CCC=C1c2ccccc2COc2ccccc21 [DOXEPIN]: 1.8
- CCC1(c2ccccc2)C(=O)NC(=O)NC1=O [PHENOBARBITAL]: 2
- CC1=C(CC(=O)O)c2cc(F)ccc2/C1=C\c1ccc([S+](C)[O-])cc1 (stereo not given): 1.7
- CC(C)N(CCC(C(N)=O)(c1ccccc1)c1ccccn1)C(C)C (stereo not given) [DISOPYRAMIDE]: 1.9

Q) Entry ClC(Cl)(Cl)Cl [CARBON TETRACHLORIDE] has what KIDNEY_TOTAL?
A) 1.8

Q) Fill blank: measured KIDNEY_TOTAL of the compound OCCOCCN1CCN(C(c2ccccc2)c2ccc(Cl)cc2)CC1 (stereo not given) [HYDROXYZINE] is ____.
A) 1.8

Q) Value lookup for KIDNEY_TOTAL; key = O=NN(CCCl)C(=O)NC1CCCCC1 [LOMUSTINE]
A) 2

Q) I would be grateful if you could share the reported KIDNEY_TOTAL for CCc1oc2ccccc2c1C(=O)c1cc(Br)c(O)c(Br)c1 [BENZBROMARONE] .
A) 2.1
